# Tested On: Nitric oxide synthase, inducible (Mus musculus, UniProt P29477)
# Sequence (P29477 whole entry): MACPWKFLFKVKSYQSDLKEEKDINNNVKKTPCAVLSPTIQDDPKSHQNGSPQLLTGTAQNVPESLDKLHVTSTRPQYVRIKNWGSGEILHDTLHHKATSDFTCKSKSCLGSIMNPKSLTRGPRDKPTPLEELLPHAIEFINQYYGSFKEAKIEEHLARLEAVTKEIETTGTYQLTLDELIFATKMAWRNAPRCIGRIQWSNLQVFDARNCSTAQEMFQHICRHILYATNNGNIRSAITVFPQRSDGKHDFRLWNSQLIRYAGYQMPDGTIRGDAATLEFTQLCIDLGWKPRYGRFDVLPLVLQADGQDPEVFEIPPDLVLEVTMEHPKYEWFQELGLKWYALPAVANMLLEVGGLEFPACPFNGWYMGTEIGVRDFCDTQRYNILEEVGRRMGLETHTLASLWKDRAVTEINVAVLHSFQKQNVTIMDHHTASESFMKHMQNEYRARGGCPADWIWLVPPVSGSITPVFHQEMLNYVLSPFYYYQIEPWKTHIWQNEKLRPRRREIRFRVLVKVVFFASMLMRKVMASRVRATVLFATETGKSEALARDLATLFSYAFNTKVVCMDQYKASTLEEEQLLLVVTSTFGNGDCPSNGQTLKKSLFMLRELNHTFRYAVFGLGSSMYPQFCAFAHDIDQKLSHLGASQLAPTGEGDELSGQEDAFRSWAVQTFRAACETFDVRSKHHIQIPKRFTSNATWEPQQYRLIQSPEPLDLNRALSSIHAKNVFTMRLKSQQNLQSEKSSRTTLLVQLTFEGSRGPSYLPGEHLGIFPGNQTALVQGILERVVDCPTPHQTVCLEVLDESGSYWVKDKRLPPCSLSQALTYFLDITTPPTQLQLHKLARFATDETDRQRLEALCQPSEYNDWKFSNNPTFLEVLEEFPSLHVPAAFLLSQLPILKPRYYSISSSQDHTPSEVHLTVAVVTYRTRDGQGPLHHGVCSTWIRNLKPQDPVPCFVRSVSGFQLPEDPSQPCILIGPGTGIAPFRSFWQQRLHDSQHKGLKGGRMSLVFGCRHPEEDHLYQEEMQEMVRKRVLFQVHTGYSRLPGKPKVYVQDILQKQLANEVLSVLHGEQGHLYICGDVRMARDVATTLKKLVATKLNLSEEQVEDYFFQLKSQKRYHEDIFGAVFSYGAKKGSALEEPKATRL
# Test Protocol: Compound was tested for binding affinity against recombinant inducible nitric oxide synthase (iNOS) from mouse
Kindly supply the reported Ki values for the records listed here.
Answers are plain numbers, in nM.

Prompt: Tell me the measured Ki of C#CC/N=C(/N)NCCCC(N)C(=O)O (stereo not drawn) , please.
Response: 620

Prompt: Data request, read-out Ki, for C=CCNC(=N)NCCCC(N)C(C)=O (stereo not drawn)
Response: 2100

Then this compound:
Prompt: Which Ki value belongs to CC/N=C(/N)NCCCC(N)C(=O)O (stereo not drawn) ?
Response: 6100
